Cited source for all entries: patent US9173935B2

Test system: PBMCs
Assay: IL-6 and TNF-alpha secretion in PBMCs from three donors (ELISA)
Assay type: cell-based, human
Details: D2, first experiments on three donors; read-out: EC50 values, IL-6 secretion
OBSERVATION TYPE: pEC50
Units for pEC50: none; it is -log10 of a concentration expressed in mol/L.

{"columns": ["COMPOUND", "pEC50"],
 "data": [
  ["CCCCCCCC/C=C\\CCCCCCCC(=O)OCC(COP(=O)(O)OCCNC(=O)c1ccc(Cn2c(=O)[nH]c3c(N)nc(OCCOC)nc32)cc1)OC(=O)CCCCCCC/C=C\\CCCCCCCC (centres unmarked)", 6.13]
]}

--- query ---
# input API: value(readout= pEC50, system= PBMCs, query= CCCCCCCCCCCC(=O)OCC(COP(=O)(O)OCCNC(=O)c1ccc(Cn2c(=O)[nH]c3c(N)nc(OCCOC)nc32)cc1)OC(=O)CCCCCCCCCCC (centres unmarked) )
# output 6.06

----------
Target: CYP2C19 (Homo sapiens (Human), UniProt P33261)
Sequence (P33261 whole entry, looked up): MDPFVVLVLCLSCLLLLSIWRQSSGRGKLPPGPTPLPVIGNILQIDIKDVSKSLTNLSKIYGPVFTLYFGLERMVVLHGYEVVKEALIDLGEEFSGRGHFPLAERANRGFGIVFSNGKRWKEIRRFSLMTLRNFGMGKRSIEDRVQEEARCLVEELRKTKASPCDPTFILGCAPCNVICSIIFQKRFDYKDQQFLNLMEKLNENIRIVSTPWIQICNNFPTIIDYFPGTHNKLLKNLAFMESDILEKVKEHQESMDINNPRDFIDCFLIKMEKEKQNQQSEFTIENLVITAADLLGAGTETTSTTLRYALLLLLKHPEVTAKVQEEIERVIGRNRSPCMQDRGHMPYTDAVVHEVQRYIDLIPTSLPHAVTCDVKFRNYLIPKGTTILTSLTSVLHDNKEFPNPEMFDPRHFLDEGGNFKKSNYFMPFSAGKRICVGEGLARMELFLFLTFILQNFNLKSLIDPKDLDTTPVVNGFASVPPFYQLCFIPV
Assay: Fluorescent High Throughput P450 assay, CYP2C19
Type: biochemical
Details: substrate CEC; read-out: CYP2C19 IC50 (Mean ± S.D.)
OBSERVATION TYPE: IC50

# input Suppose we examine the molecule CCCCCCCCCCCC(=O)OCC(COP(=O)(O)OCCNC(=O)c1ccc(Cn2c(=O)[nH]c3c(N)nc(OCCOC)nc32)cc1)OC(=O)CCCCCCCCCCC (stereo not shown) ; what IC50 value has been reported?
# output > 100 µM

----------
System: whole blood
Assay: Cytokine secretion in human whole blood assay (ELISA)
Type: cell-based
Conditions: read-out: EC50-IFN-alpha, 6 h Incubation; Donor 3
OBSERVATION TYPE: EC50 (nM)
Report only the number, with the unit nM understood.

# input Suppose we examine the molecule CCCCCCCCCCCC(=O)OCC(COP(=O)(O)OCCNC(=O)c1ccc(Cn2c(=O)[nH]c3c(N)nc(OCCOC)nc32)cc1)OC(=O)CCCCCCCCCCC (stereo not shown) ; what EC50 value has been reported?
# output 1660

----------
Biological target: CYP3A5 (Homo sapiens (Human), UniProt P20815)
Sequence (P20815 whole entry, looked up): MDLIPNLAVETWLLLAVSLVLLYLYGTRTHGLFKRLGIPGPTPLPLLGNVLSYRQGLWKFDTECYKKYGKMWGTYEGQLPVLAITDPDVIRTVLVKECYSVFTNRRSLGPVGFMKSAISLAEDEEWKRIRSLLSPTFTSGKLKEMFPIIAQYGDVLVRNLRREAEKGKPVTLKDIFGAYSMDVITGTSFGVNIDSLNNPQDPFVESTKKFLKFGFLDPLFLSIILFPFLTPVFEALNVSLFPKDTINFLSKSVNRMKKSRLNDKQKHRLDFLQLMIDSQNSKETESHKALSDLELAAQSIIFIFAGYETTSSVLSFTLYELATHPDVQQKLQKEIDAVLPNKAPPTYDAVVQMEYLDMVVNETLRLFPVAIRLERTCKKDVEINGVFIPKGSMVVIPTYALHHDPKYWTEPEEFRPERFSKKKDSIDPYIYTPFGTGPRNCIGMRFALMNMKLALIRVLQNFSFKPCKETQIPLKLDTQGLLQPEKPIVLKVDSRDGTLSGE
Assay: Fluorescent High Throughput P450 assay, CYP3A5
Format: biochemical
Settings: substrate BFC; read-out: CYP3A5 IC50 (Mean ± S.D.)
OBSERVATION TYPE: IC50 (µM)
Report only the number, with the unit µM understood.

# input API: value(readout= IC50, system= CYP3A5 (Homo sapiens (Human), UniProt P20815), query= CCCCCCCCCCCC(=O)OCC(COP(=O)(O)OCCNC(=O)c1ccc(Cn2c(=O)[nH]c3c(N)nc(OCCOC)nc32)cc1)OC(=O)CCCCCCCCCCC (stereo not shown) )
# output 10.5

----------
System: whole blood
Experiment: Cytokine secretion in human whole blood assay (ELISA)
Format: cell-based
Conditions: Donor 2; read-out: EC50-IL-12p40, 24 h Incubation
OBSERVATION TYPE: EC50 (µM)
Report only the number, with the unit µM understood.

# input Suppose we examine the compound CCCCCCCCCCCC(=O)OCC(COP(=O)(O)OCCNC(=O)c1ccc(Cn2c(=O)[nH]c3c(N)nc(OCCOC)nc32)cc1)OC(=O)CCCCCCCCCCC (stereo not shown) [SC12] ; what EC50 value has been reported?
# output 1.42
